Sourced from patent US20030104507A1

Listing of recorded Average Relative Light Unit Values by entry.
- System: ATPase activity endogenous to L929 cell lysate
- experiment_description: Detergent inhibition of ATPase endogenous to L929 cell lysate (ATP remaining by luciferase luminescence, 22° C.)
- Type: biochemical
- test_context: Example 2, 0.02% detergent, 169 min
Reply numerically in rlu, unit not repeated.

Examples from the recorded data:
>>> data_value("C[C@H](CCC(=O)[O-])[C@H]1CC[C@H]2[C@@H]3CC[C@@H]4C[C@H](O)CC[C@]4(C)[C@H]3C[C@H](O)[C@]12C.[Na+] [Deoxycholate, sodium deoxycholate]")
368.11
>>> data_value("CCCCCCCCCCCC[N+](C)(C)C.[Br-] [DTAB, dodecyltrimethylammonium bromide]")
435.05

Quick one: Average Relative Light Unit Values of CCCCCCCCCCCC[N+](C)(C)Cc1ccccc1.[Br-] [BDDABr, Benzyldimethyldodecylammonium bromide] ? 962.85

Quick one: Average Relative Light Unit Values of CCCCCCCCCCCC[N+](C)(C)CCCS(=O)(=O)[O-] [Sulfobetaine 3-10] ? 291.09
